# procedure-text: Inhibition of calpain-mediated pp60src degradation in platelets
# Assay type: functional, Homo sapiens
Square brackets hold non-standard residues; d marks the D form. Peptide text beside a SMILES is read from it. * marks the point of attachment. ξ: configuration not given here. ξF = NC(Cc1ccccc1)C(=O)O; Cbz = O=C(OCc1ccccc1)*
quantity: IC50 (nM)
Value expressed in nM; do not type the unit.

State, in one line, measured IC50 of CC(C)[C@H](NC(=O)OCc1ccccc1)C(=O)NC(C=O)Cc1ccccc1 (stereo partly drawn) (Cbz-Val-[ξF]-aldehyde)
700

# next compound below
State, in one line, measured IC50 of NC(=O)C(=O)C(Cc1ccccc1)NC(=O)C1CCN(C(=O)c2ccc3ccccc3c2)CC1 (configuration not stated)
1800

----------
Catalogue of pKi values
# target-of-assay: Calpain-1 catalytic subunit (Homo sapiens, UniProt P07384)
# Sequence (P07384 whole entry): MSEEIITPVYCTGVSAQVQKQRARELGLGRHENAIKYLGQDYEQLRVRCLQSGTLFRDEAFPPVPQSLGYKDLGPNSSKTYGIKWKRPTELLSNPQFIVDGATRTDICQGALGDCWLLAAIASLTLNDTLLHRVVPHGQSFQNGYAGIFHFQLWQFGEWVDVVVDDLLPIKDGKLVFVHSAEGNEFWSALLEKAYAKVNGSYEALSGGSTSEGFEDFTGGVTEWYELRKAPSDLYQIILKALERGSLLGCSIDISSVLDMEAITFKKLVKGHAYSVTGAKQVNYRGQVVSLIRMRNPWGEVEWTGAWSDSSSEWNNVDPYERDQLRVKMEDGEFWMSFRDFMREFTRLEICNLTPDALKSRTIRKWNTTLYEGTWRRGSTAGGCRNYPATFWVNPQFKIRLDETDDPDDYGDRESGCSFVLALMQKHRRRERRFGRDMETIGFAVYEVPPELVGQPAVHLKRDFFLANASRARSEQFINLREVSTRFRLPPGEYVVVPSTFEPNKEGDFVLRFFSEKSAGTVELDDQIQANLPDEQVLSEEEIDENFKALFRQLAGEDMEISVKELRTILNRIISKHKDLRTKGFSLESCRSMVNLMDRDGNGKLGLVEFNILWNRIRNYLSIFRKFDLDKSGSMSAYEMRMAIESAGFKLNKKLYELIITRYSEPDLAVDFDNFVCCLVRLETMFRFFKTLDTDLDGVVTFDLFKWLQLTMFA
# procedure-text: Inhibition of Suc-Leu-Tyr-AMC binding to human mu-calpain from erythrocytes
// pKi here means minus log10 of the molar concentration (mol/L)

Look over these answered cases.
State, in one line, measured pKi of NC(=O)C(=O)C(Cc1ccccc1)NC(=O)C1CCN(C(=O)/C=C/c2ccncc2)CC1 (centres undefined)
4.87

State, in one line, measured pKi of NC(=O)C(=O)C(Cc1ccccc1)NC(=O)C1CCN(C(=O)c2ccc3ncccc3c2)CC1 (centres undefined)
6.80

State, in one line, measured pKi of O=C(NCCCN1CCOCC1)C(=O)C(Cc1ccccc1)NC(=O)C1CCN(C(=O)c2ccc3ccccc3c2)CC1 (centres undefined)
6.02

State, in one line, measured pKi of CCC(NC(=O)C1CCN(C(=O)/C=C/c2ccccc2)CC1)C(=O)C(N)=O (centres undefined)
4.48

State, in one line, measured pKi of CC(C)CC(NC(=O)C1CCN(C(=O)/C=C/c2ccccc2)CC1)C(=O)C(N)=O (centres undefined)
5.87

State, in one line, measured pKi of NC(=O)C(=O)C(Cc1ccccc1)NC(=O)C1CCN(C(=O)c2cnc3ccccc3c2)CC1 (centres undefined)
6.17

Next:
State, in one line, measured pKi of NC(=O)C(=O)C(Cc1ccccc1)NC(=O)C1CCN(S(=O)(=O)c2ccc3ccccc3c2)CC1 (centres undefined)
6.35

State, in one line, measured pKi of CCNC(=O)C(=O)C(Cc1ccccc1)NC(=O)C1CCN(S(=O)(=O)c2ccc3ccccc3c2)CC1 (centres undefined)
3.10

State, in one line, measured pKi of NC(=O)C(=O)C(Cc1ccccc1)NC(=O)C1CCN(C(=O)c2cc3ccccc3s2)CC1 (centres undefined)
8.05

----------
Catalogue of Ki values
# target-of-assay: Calpain-1 catalytic subunit (Homo sapiens)
# procedure-text: Inhibition of Suc-Leu-Tyr-AMC binding to human mu-calpain from erythrocytes
Value expressed in nM; do not type the unit.

Look over these answered cases.
Fill: Ki (Calpain-1 catalytic subunit (Homo sapiens)) for this compound NC(=O)C(=O)C(Cc1ccccc1)NC(=O)C1CCN(C(=O)/C=C/c2ccccc2)CC1 (stereo not given)
460

Fill: Ki (Calpain-1 catalytic subunit (Homo sapiens)) for this compound O=C(NCCCN1CCOCC1)C(=O)C(Cc1ccccc1)NC(=O)C1CCN(S(=O)(=O)c2ccc3ccccc3c2)CC1 (stereo not given)
810

Fill: Ki (Calpain-1 catalytic subunit (Homo sapiens)) for this compound NC(=O)C(=O)C(Cc1ccccc1)NC(=O)C1CCN(C(=O)c2ccccc2)CC1 (stereo not given)
560

Fill: Ki (Calpain-1 catalytic subunit (Homo sapiens)) for this compound NC(=O)C(=O)C(Cc1ccccc1)NC(=O)C1CCN(C(=O)c2ccc3ccccc3c2)CC1 (stereo not given)
30

Next:
Fill: Ki (Calpain-1 catalytic subunit (Homo sapiens)) for this compound NC(=O)C(=O)C(Cc1ccccc1)NC(=O)C1CCN(Cc2ccc3ccccc3c2)CC1 (stereo not given)
13600

----------
Quick note: these are pKi numbers for system: UniProt:P07858
// pKi here means minus log10 of the molar concentration (mol/L)

State, in one line, measured pKi of NC(=O)C(=O)C(Cc1ccccc1)NC(=O)C1CCN(C(=O)c2ccc3ccccc3c2)CC1 (configuration not stated)
5.14

# next compound below
State, in one line, measured pKi of NC(=O)C(=O)C(Cc1ccccc1)NC(=O)C1CCN(C(=O)c2cc3ccccc3s2)CC1 (configuration not stated)
5.49
